# reported half-life; entries follow
Assay name: Half life in dog
Format: ADME, organism-based, Canis lupus familiaris
Study conditions: in vivo
Measured quantity: half-life

Record smiles: COc1ccc(CS(=O)(=O)C(C)(C)[C@H](N)C(=O)N2C[C@@H](F)C[C@H]2C#N)cc1
Val: 234 min
--
Record smiles: COc1ccc(CS(=O)(=O)C(C)(C)[C@H](N)C(=O)N2CCC[C@H]2C#N)cc1
Val: 180 min

====

Assay name: Oral bioavailability in dog
Type: ADME, organism-based, Canis lupus familiaris
Study conditions: in vivo

Record smiles: COc1ccc(CS(=O)(=O)C(C)(C)[C@H](N)C(=O)N2CCC[C@H]2C#N)cc1
bioavailability (%): 100

Entry source: ChEMBL document CHEMBL1141969
